Assayed System: S1P1 receptor (Homo sapiens)
Sequence (P21453 whole entry): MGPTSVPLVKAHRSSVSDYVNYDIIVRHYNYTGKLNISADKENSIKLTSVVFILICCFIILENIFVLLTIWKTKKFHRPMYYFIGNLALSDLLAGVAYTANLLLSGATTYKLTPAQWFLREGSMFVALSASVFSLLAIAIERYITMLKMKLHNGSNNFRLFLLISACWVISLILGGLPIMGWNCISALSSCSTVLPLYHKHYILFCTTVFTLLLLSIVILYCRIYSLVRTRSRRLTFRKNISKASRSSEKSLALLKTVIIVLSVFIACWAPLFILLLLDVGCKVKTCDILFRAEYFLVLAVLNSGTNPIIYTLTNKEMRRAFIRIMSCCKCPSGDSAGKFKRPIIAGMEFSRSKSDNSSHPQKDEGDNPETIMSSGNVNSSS
Assay Method Text: S1P1 receptor agonistic activity test (PathHunter cell line)
Reported Conditions: agonist mode
Test Readout: EC50

Dear colleague, please send me the reported EC50 for CC(C)Oc1ccc(-c2nc(-c3cccc4c3C[C@@H]3CC(=O)N(CCO)[C@H]43)no2)cc1C#N (single isomer, unassigned) [Compound 1] when you can.
< 10 nM

----------
Assay Method Text: Pharmacokinetic evaluation in SD rats
Format: in vivo
Reported Conditions: Sprague Dawley, rat, plasma, 3 mg/kg, male, intravenous injection and oral administration, Ozanimod at 3 mpk, read-out: Bioavailability F (%)
Parameter: bioavailability. Scope: all listed entries.
Only the number, expressed in %, is required.

| Molecule | bioavailability / % |
| --- | --- |
| CC(C)Oc1ccc(-c2nc(-c3cccc4c3CC[C@@H]4NCCO)no2)cc1C#N [Ozanimod, reference compound] | 41.6 |

Field: next molecule
Dear colleague, please send me the reported bioavailability for CC(C)Oc1ccc(-c2nc(-c3cccc4c3C[C@@H]3CC(=O)N(CCO)[C@H]43)no2)cc1C#N (single isomer, unassigned) when you can.
85.8

----------
Assay Method Text: Pharmacokinetic evaluation in SD rats
Type: in vivo
Reported Conditions: Sprague Dawley, rat, plasma, 3 mg/kg, male, intravenous injection and oral administration, Ozanimod at 3 mpk
Test Readout: clearance (mL/min/kg)
Only the number, expressed in mL/min/kg, is required.

| Compound | Measurement |
| --- | --- |
| CC(C)Oc1ccc(-c2nc(-c3cccc4c3C[C@@H]3CC(=O)N(CCO)[C@H]43)no2)cc1C#N (single isomer, unassigned) [Compound 1] | 11.5 |

Dear colleague, please send me the reported clearance for CC(C)Oc1ccc(-c2nc(-c3cccc4c3CC[C@@H]4NCCO)no2)cc1C#N [Ozanimod, reference compound] when you can.
46.3

----------
Assay Method Text: Pharmacokinetic evaluation in SD rats
Format: in vivo
Reported Conditions: Sprague Dawley, rat, plasma, 3 mg/kg, male, intravenous injection and oral administration, Ozanimod at 3 mpk, read-out: Half-life T1/2 (converted)
Parameter: half-life. Scope: all listed entries.
Only the number, expressed in h, is required.

| Compound | Measurement |
| --- | --- |
| CC(C)Oc1ccc(-c2nc(-c3cccc4c3C[C@@H]3CC(=O)N(CCO)[C@H]43)no2)cc1C#N (single isomer, unassigned) | 3.46 |

Field: next compound
Dear colleague, please send me the reported half-life for CC(C)Oc1ccc(-c2nc(-c3cccc4c3CC[C@@H]4NCCO)no2)cc1C#N [Ozanimod, reference compound] when you can.
5.24
